- measuredTarget: ΔF508-CFTR (Homo sapiens, UniProt P13569, DEL508-508)
- Construct: Primary lung epithelial cells homozygous for the Cystic Fibrosis-causing ΔF508 mutation were differentiated; endogenous in cells; host or cells: primary human lung (bronchial) epithelial cells homozygous for ΔF508, differentiated at air-liquid interface
- Sequence (P13569 with tags, fused parts or gaps DEL508-508): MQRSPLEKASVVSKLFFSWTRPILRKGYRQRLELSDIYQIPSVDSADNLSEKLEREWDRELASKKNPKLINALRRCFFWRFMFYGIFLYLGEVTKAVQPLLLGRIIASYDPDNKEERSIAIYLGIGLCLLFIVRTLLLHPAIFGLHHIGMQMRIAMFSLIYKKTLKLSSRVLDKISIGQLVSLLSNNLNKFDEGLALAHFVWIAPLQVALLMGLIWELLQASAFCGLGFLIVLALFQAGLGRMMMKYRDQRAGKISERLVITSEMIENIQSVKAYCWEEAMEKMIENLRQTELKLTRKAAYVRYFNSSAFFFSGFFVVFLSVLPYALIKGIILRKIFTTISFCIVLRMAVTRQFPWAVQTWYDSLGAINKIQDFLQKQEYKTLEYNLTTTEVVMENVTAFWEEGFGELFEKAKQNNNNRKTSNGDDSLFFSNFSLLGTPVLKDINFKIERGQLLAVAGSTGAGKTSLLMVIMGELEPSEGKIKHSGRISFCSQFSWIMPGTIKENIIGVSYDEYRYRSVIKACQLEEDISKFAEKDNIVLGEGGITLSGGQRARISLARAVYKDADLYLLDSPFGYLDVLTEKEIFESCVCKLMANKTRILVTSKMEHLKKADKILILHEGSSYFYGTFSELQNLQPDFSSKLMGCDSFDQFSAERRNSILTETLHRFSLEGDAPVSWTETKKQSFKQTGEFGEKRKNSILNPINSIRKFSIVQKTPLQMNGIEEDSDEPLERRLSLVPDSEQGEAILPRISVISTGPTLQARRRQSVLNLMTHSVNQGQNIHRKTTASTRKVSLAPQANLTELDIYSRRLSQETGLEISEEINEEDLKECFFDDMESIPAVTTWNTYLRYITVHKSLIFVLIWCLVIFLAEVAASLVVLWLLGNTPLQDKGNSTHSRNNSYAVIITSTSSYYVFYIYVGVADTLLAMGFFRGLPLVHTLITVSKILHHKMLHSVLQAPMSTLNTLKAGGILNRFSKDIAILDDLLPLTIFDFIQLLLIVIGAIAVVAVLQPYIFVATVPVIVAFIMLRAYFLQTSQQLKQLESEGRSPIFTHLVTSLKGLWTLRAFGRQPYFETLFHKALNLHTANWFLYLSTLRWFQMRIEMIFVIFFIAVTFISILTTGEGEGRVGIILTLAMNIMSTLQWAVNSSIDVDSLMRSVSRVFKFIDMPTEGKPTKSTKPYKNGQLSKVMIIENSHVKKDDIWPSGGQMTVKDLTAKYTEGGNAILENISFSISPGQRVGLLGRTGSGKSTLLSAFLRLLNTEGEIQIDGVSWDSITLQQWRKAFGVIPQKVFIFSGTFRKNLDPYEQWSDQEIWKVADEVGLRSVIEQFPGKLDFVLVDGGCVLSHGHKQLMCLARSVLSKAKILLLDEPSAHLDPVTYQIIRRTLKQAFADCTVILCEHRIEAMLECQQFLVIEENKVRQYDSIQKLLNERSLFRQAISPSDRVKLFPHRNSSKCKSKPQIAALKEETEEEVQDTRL
- assayProtocol: hBE equivalent current (Ieq) assay
- Assay type: cell-based
- assayContext: compound at 10 uM and VX-809 at 1 uM, relative to VX-809 (1 uM); primary lung epithelial cells homozygous for ΔF508, 24 hours treatment; AUC of equivalent chloride current
Marks after values point to notes of the source that are not given here.
readoutKind: Ieq (% VX-809)

O=C(N[C@H]1C[C@H](n2nncc2CO)C1)c1cc(-c2ccccc2)on1
++ *

====

- measuredTarget: ΔF508-CFTR (Homo sapiens, UniProt P13569, DEL508-508)
- Construct: Primary lung epithelial cells homozygous for the Cystic Fibrosis-causing ΔF508 mutation were differentiated; endogenous in cells; host or cells: primary human lung (bronchial) epithelial cells homozygous for ΔF508, differentiated at air-liquid interface
- assayProtocol: hBE equivalent current (Ieq) assay
- Format: cell-based
- assayContext: compound at 10 uM and VX-809 at 1 uM, relative to VX-809 (1 uM); primary lung epithelial cells homozygous for ΔF508, 24 hours treatment; AUC of equivalent chloride current
Marks after values point to notes of the source that are not given here.
readoutKind: Ieq (% VX-809)

O=C(N[C@H]1C[C@H](n2cc(CO)nn2)C1)c1cc(-c2ccccc2)on1
++ *
